The compounds listed here are annotated with their TGI.
Test system: SK-MEL-28 melanoma
Experiment: NCI tumour cell line growth inhibition, 48 h
measurementName: TGI

• COc1cc2nc3sc(C(=O)Nc4ccc(C(=O)OC(C)C)cc4)c(C(=O)Nc4ccc(Cl)cc4C)n3c(=O)c2cc1OC = > 100 µM
• Cc1ccc2c(c1)C(=O)/C(=C\c1ccccc1)CCS2(=O)=O = > 66.4 µM
• COC(OC)C1OC(CO)C(n2cc(C)c(=O)[nH]c2=O)C1O (stereo unspecified) = > 100 µM
• Cc1ccc(NC(=O)CCC(CC(=O)C(C)(C)C)=NNC(=O)C(=O)NN)cc1C = > 100 µM
• [O-]c1c2c(nn1-c1ccccc1)c1ccccc1c[n+]2Cc1ccccc1 = > 100 µM
• CC1C(=O)OC2CC[N+]3(CC(=O)c4ccc(Br)cc4)CC=C(COC(=O)C(C)(O)C1(C)O)C23 (stereo unspecified) = > 375 µM

====

Test system: SF-539 CNS
Experiment: NCI tumour cell line growth inhibition, 48 h
measurementName: TGI

• CCOC12OC3=C(CC1CC1=C(CCC1=O)O2)C(=O)CC3 (configuration not stated) = > 100 µM
• CC(=O)O[C@H]1C(=O)[C@@]2(C)[C@H]([C@H](OC(=O)c3ccccc3)[C@]3(O)C[C@H](OC(=O)[C@H](OC(=O)OCCC(O)CO)[C@@H](NC(=O)c4ccccc4)c4ccccc4)C(C)=C1C3(C)C)[C@]1(OC(C)=O)CO[C@@H]1C[C@@H]2O (some centres not stated) = < 0.01 µM
• O=C(O)C(CP(=O)(O)O)=C(Cl)Cl = > 100 µM
• Cc1ccc(NC(=O)CCC(CC(=O)C(C)(C)C)=NNC(=O)C(=O)NN)cc1C = > 100 µM
• Cc1ccccc1C1CC(=O)CC(c2ccccc2C)C12C(=O)NC(=O)NC2=O (configuration not stated) = > 100 µM
• COc1cc(/C=C2\[C@H]3c4c(c(OC)c(C)c(OC)c4OC)C[C@@H](C(=O)N2Cc2ccccc2)N3C(=O)OCC(C)C)c(OC)c(C)c1OC = > 100 µM
• CCOC(=O)c1cc2c(ccc3cc(C(=O)OCC)[nH]c32)[nH]1 = 29.6 µM

====

System: RPMI-8226 leukemia
Experiment: NCI tumour cell line growth inhibition, 48 h; in the data active = GI50 below about 0.43 µM; inactive = the rest
Labels: true for active, false for inactive

* COc1ccc2nc(-c3cc(-c4cc(OC)c(OC)c(OC)c4)n[nH]3)[nH]c2c1 | false
* Oc1ccc2cc(Br)ccc2c1-c1c(O)ccc2cc(Br)ccc12 | false
* O=S(=O)(O)O.[NH-]C1CCCCC1[NH-].[Pt+2] (stereo not given) | false
* COc1cc(NS(C)(=O)=O)ccc1Nc1c2ccc(Cl)cc2nc2c(OC)cccc12 | false
* COc1cc(C(=O)c2ccc3c(c2)OCO3)cc(OC)c1OC | false
* CC[C@@H](C(=O)[C@@H](C)[C@@H](O)[C@H](C)[C@@H]1O[C@@H]([C@@H](CC)C(=O)O)CC[C@@H]1C)C1O[C@]2(C=CC(=O)[C@]3(CC[C@@](C)([C@H]4CC[C@](O)(CC)[C@H](C)O4)O3)O2)[C@H](C)C[C@@H]1C (stereo not given in full) | true
* O=C1CC(c2ccc(N3CCOCC3)cc2)(c2ccsc2)NC(=O)C1Sc1ccccc1Cl (stereo not given) | false
* C=C1C(=O)O[C@H]2[C@H]1CC/C(COC(=O)CCCCC(=O)OC/C1=C/CC[C@@]3(C)O[C@H]3[C@H]3OC(=O)C(=C)[C@@H]3CC1)=C\CC[C@@]1(C)O[C@@H]21 | false
* CCC[CH2][Sn]1([CH2]CCC)[O]C(=O)c2cc(I)cc(I)c2[O]1 | true
* C[n+]1c(/C=C\c2ccc(Cl)cc2)ccc2ccccc21 | false
